test system: AGS; assay: Cell proliferation experiment (CellTiter-Glo); type: cell-based; conditions: Homo sapiens, AGS, 96 h, read-out: IC50(nM) AGS
MEASURED_METRIC: IC50 (nM)
Numbers only; they are read as nM.

COMPOUND_STRUCTURE	IC50 [nM]
CCc1c(F)ccc2cc(O)cc(-c3ncc4c(N5CCC[C@@](C)(O)C5)nc(OCC5(CN6CCC(c7ccc(-c8cn([C@H](C(=O)N9C[C@H](O)C[C@H]9C(=O)N[C@@H](C)c9ccc(-c%10scnc%10C)cc9)C(C)C)nn8)cn7)CC6)CC5)nc4c3F)c12	11

Moving on to another molecule below.
Q) Identify measured IC50 associated with CCc1c(F)ccc2cc(O)cc(-c3ncc4c(N5CCC[C@@](C)(O)C5)nc(OCC5(CN6CCC(c7cn([C@H](C(=O)N8C[C@H](O)C[C@H]8C(=O)N[C@@H](C)c8ccc(-c9scnc9C)cc8)C(C)C)nn7)CC6)CC5)nc4c3F)c12
A) 34
